Data provenance is patent US9828368B2.

Catalogue of log10 of IC50 values
- SYSTEM UNDER TEST: human orexin-2 receptor (Homo sapiens (Human))
- Sequence (O43614 whole entry): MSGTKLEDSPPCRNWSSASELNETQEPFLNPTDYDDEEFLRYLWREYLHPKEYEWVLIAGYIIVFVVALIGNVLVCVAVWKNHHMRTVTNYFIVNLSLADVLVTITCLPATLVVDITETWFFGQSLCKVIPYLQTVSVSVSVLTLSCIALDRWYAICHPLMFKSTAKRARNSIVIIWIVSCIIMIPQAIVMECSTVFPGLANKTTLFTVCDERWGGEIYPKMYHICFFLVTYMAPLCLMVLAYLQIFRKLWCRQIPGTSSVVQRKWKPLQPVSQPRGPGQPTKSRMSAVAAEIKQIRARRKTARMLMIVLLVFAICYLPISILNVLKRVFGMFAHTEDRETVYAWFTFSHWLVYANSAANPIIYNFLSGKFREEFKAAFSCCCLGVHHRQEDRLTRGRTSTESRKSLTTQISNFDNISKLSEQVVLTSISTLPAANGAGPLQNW
- METHOD DESCRIPTION: FLIPR Ca2+ flux assay, hOX2R
- STATED CONDITIONS: CHO cells expressing human orexin-2 receptor; agonist 70 pM Ala-6,12 orexin-A
Units before log transform: µM; reported quantity: IC50; transform: log10.

Here's what some known entries look like.
| SMILES STR | log10 of IC50 |
| --- | --- |
| Cc1oc([C@@H]2CC[C@@H](C)N(C(=O)c3ccccc3OC(F)(F)F)C2)nc1C(C)(C)O | -1.85 |
| Cc1nc([C@@H]2CC[C@@H](C)N(C(=O)c3ccccc3-n3nccn3)C2)oc1C(C)(C)O | -1.20 |
| C[C@@H]1CC[C@@H](c2nc(CF)c(-c3ccccc3)o2)CN1C(=O)c1ccccc1-n1nccn1 | -0.80 |
| C[C@@H]1CC[C@@H](c2nc(C(C)(C)O)c(Cl)o2)CN1C(=O)c1ccccc1-n1nccn1 | -0.58 |
| CCOc1ncccc1C(=O)N1C[C@H](c2nc(C(C)(C)O)c(C)o2)CC[C@H]1C | -0.53 |

I am curious: what log10 of IC50 value has been reported for COC(=O)c1nc([C@@H]2CC[C@@H](C)N(C(=O)c3ccccc3-n3nccn3)C2)oc1Br ?
-1.52

I have this molecule here, C[C@@H]1CC[C@@H](c2nc(CCO)c(-c3ccccc3)o2)CN1C(=O)c1ccccc1-n1nccn1 , and I need its recorded log10 of IC50.
-1.23

For Cc1oc([C@@H]2CC[C@@H](C)N(C(=O)c3ccsc3-n3nccn3)C2)nc1C(C)(C)O , what is its reported log10 of IC50?
-1.97
